Known Activity of a selection of compounds
Test system: HepG2
assayInfo: Insulin-sensitizing activity in human HepG2 cells assessed as increase in glucose consumption at 10 uM relative to control
Type: functional

Check out these entries, answers already filled in.
>  <compound>
COc1cc2c(c(OCC=C(C)C)c1)C(=O)N(C(C)c1ccccc1)CC2 (centres undefined)

>  <Activity>
28.5%

$$$$
>  <compound>
COc1cc2c(c(OCC=C(C)C)c1)C(=O)N(Cc1ccc(F)c(Cl)c1)CC2

>  <Activity>
36.9%

$$$$
>  <compound>
COc1cc(O)c(C(=O)O)c(CC(=O)c2cccs2)c1

>  <Activity>
9.1%

$$$$
>  <compound>
COc1cc2c(c(OCC=C(C)C)c1)C(=O)N(Cc1cccc(F)c1)CC2

>  <Activity>
37.4%

$$$$
>  <compound>
COc1cc(O)c(C(=O)O)c(CC(=O)c2ccc(Cl)cc2Cl)c1

>  <Activity>
10.2%

$$$$
>  <compound>
COc1cc(CC(=O)c2ccc(Cl)cc2Cl)c(C(=O)O)c(O)c1CC=C(C)C

>  <Activity>
31.9%

$$$$

Documented Activity of COc1cc2c(c(OCC=C(C)C)c1)C(=O)N(C(C)c1cccc(C(F)(F)F)c1)CC2 (centres undefined) : 30.6%

Noted for `COc1cc(CC(=O)c2ccc(F)cc2)c(C(=O)O)c(O)c1CC=C(C)C` : its Activity reads 45.6%

Notebook: `COc1cc(O)c(C(=O)O)c(CS(=O)(=O)c2ccccc2)c1CC=C(C)C` , Activity read as 4.9%
